Where these numbers come from: ChEMBL document CHEMBL1158362

# ASSAYED SYSTEM: Potassium voltage-gated channel subfamily A member 3 (Homo sapiens)
# Sequence (P22001 whole entry): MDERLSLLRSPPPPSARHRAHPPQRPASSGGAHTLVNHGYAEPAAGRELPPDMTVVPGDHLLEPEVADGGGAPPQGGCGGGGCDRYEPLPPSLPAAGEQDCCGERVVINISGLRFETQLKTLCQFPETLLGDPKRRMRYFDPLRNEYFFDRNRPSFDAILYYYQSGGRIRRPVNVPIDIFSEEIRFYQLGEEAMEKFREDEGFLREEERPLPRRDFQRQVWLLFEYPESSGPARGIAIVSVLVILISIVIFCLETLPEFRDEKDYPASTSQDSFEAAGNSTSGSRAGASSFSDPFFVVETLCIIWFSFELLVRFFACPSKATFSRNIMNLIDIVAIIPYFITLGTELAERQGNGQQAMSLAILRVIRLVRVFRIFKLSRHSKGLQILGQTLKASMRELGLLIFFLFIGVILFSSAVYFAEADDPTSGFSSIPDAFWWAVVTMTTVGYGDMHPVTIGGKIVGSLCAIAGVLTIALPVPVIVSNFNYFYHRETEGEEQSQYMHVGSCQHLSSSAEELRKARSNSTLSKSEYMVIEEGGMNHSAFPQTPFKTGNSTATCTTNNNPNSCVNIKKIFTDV
# PROTOCOL NOTES: Inhibition of Kv1.3 potassium channel expressed in mouse L929 cells by whole cell patch clamp
MEASUREMENT LABEL: IC50 (µM)
Number only, in µM; omit the unit.

Look over these answered cases.
INSERT INTO results (line_notation, assayed_system, measurement_label, val) VALUES
  ('O=c1c(OCCCCOc2ccccc2)c(-c2ccccc2)oc2ccccc12', 'Potassium voltage-gated channel subfamily A member 3 (Homo sapiens)', 'IC50', 1),
  ('c1ccc(OCCCCOc2cccc3ccccc23)cc1', 'Potassium voltage-gated channel subfamily A member 3 (Homo sapiens)', 'IC50', 15),
  ('O=c1ccc2cc3ccoc3c(OCCCCOc3ccccc3)c2o1', 'Potassium voltage-gated channel subfamily A member 3 (Homo sapiens)', 'IC50', 1),
  ('COc1cccc2c(=O)c3ccccc3n(CCCCOc3ccccc3)c12', 'Potassium voltage-gated channel subfamily A member 3 (Homo sapiens)', 'IC50', 0.165),
  ('COc1c2occc2c(OCCCCOc2ccccc2)c2c(=O)cc(C)oc12', 'Potassium voltage-gated channel subfamily A member 3 (Homo sapiens)', 'IC50', 1.5),
  ('c1ccc(OCCCCOc2c3ccccc3nc3occc23)cc1', 'Potassium voltage-gated channel subfamily A member 3 (Homo sapiens)', 'IC50', 1),
  ('c1ccc(OCCCCOc2ccccc2)cc1', 'Potassium voltage-gated channel subfamily A member 3 (Homo sapiens)', 'IC50', 20),
  ('Cn1c(=O)cc(OCCCCOc2ccccc2)c2ccccc21', 'Potassium voltage-gated channel subfamily A member 3 (Homo sapiens)', 'IC50', 0.67);

# get_value(readout='IC50', item= O=C1c2ccccc2C(=O)c2c(OCCCCOc3ccccc3)cccc21 )
7

# get_value(readout='IC50', item= O=c1c2ccccc2n(CCCCOc2ccccc2)c2occc12 )
1

* * *

# PROTOCOL NOTES: Half life in po dosed rhesus monkey
# Assay type: ADME, organism-based, Macaca mulatta
# CONDITION INFO: in vivo
MEASUREMENT LABEL: half-life (h)
Number only, in h; omit the unit.

# get_value(readout='half-life', item= O=c1ccc2c(OCCCCOc3ccccc3)c3ccoc3cc2o1 )
6.7

* * *

# ASSAYED SYSTEM: Potassium voltage-gated channel subfamily A member 5 (Homo sapiens) (UniProt P22460)
# Sequence (P22460 whole entry): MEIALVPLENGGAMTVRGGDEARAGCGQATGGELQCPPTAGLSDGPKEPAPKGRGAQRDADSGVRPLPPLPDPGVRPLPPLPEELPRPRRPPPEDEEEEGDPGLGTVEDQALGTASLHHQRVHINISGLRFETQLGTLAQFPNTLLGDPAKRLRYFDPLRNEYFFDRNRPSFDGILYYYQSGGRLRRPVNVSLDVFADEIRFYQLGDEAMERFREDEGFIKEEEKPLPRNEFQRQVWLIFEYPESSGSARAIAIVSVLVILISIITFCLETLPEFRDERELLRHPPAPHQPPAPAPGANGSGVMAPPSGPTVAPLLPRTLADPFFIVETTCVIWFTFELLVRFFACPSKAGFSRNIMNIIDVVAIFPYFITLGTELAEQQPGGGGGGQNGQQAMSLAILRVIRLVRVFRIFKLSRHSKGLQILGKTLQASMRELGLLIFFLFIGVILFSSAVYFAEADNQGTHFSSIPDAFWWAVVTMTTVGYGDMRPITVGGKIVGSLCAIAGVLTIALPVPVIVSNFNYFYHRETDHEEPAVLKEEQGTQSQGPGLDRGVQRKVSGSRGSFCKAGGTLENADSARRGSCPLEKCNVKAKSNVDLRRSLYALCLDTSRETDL
# PROTOCOL NOTES: Inhibition of Kv1.5 potassium channel by whole cell patch clamp
MEASUREMENT LABEL: IC50 (nM)
Number only, in nM; omit the unit.

INSERT INTO measurements (compound, measurement_label, value_unit, val) VALUES
  ('COc1c2ccoc2cc2oc(=O)ccc12 [BERGAPTEN]', 'IC50', 'nM', 177000),
  ('O=c1ccc2cc3ccoc3c(OCCCCOc3ccccc3)c2o1', 'IC50', 'nM', 1000),
  ('c1ccc(OCCCCOc2c3ccccc3nc3occc23)cc1', 'IC50', 'nM', 2000),
  ('O=c1c2ccccc2n(CCCCOc2ccccc2)c2occc12', 'IC50', 'nM', 2000),
  ('O=c1ccc2c(OCCCCOc3ccccc3)cccc2o1', 'IC50', 'nM', 520);

# get_value(readout='IC50', item= COc1c2ccoc2c(OCCCCOc2ccccc2)c2oc(=O)cc(C)c12 )
280

# get_value(readout='IC50', item= O=c1cc(OCCCCOc2ccccc2)c2ccccc2o1 )
1500

# get_value(readout='IC50', item= Cc1cc(=O)c2c(OCCCCOc3ccccc3)c3ccoc3cc2o1 )
310

# get_value(readout='IC50', item= COc1cccc2c(=O)c3ccccc3n(CCCCOc3ccccc3)c12 )
450

# get_value(readout='IC50', item= S=c1ccc2c(OCCCCOc3ccccc3)c3ccoc3cc2o1 )
380

* * *

# ASSAYED SYSTEM: Potassium voltage-gated channel subfamily A member 5 (Homo sapiens) (UniProt P22460)
# PROTOCOL NOTES: Inhibition of Kv1.5 potassium channel by whole cell patch clamp
Exam item: assign Condition met to entries whose IC50 is below 1000 nM and Condition not met to entries at or above 1000 nM. Note that a value of exactly 1000 nM receives Condition not met.

Illustrative cases are given below, each with its answer.
INSERT INTO measurements (line_notation, assayed_system, label_class) VALUES
  ('COc1c2occc2c(OCCCCOc2ccccc2)c2c(=O)cc(C)oc12', 'Potassium voltage-gated channel subfamily A member 5 (Homo sapiens) (UniProt P22460)', 'Condition not met'),
  ('O=c1c(OCCCCOc2ccccc2)c(-c2ccccc2)oc2ccccc12', 'Potassium voltage-gated channel subfamily A member 5 (Homo sapiens) (UniProt P22460)', 'Condition not met'),
  ('c1ccc(OCCCCOc2ncnc3ccccc23)cc1', 'Potassium voltage-gated channel subfamily A member 5 (Homo sapiens) (UniProt P22460)', 'Condition not met');

API: query returns whether the compound falls strictly under 1000 nM in IC50. Query: O=c1ccc2c(OCCCCOc3ccccc3)c3ccoc3cc2o1
Condition met

* * *

# ASSAYED SYSTEM: Potassium voltage-gated channel subfamily A member 3 (Homo sapiens)
# PROTOCOL NOTES: Inhibition of Kv1.3 potassium channel expressed in mouse L929 cells by whole cell patch clamp
MEASUREMENT LABEL: pIC50
Interpret pIC50 as the negative base-10 log of the concentration measured in mol/L.

Look over these answered cases.
INSERT INTO assay_data (line_notation, measurement_label, val) VALUES
  ('O=c1ccc2c(OCCCCOc3ccccc3)cccc2o1', 'pIC50', 6.82),
  ('O=c1ccoc2cc3occc3c(OCCCCOc3ccccc3)c12', 'pIC50', 6.77);

# get_value(readout='pIC50', item= c1ccc(OCCCCOC2c3ccccc3Oc3ccccc32)cc1 )
4.92

# get_value(readout='pIC50', item= Cc1cc(=O)c2c(OCCCCOc3ccccc3)c3ccoc3cc2o1 )
6.63

* * *

# ASSAYED SYSTEM: Potassium voltage-gated channel subfamily A member 5 (Homo sapiens) (UniProt P22460)
# PROTOCOL NOTES: Inhibition of Kv1.5 potassium channel by whole cell patch clamp
Exam item: assign Fulfilled to entries whose IC50 is below 2000 nM and Not fulfilled to entries at or above 2000 nM. Note that a value of exactly 2000 nM receives Not fulfilled.

Illustrative cases are given below, each with its answer.
INSERT INTO assay_data (line_notation, label_class) VALUES
  ('c1ccc(OCCCCOc2cccc3occc23)cc1', 'Fulfilled'),
  ('O=c1ccoc2cc3occc3c(OCCCCOc3ccccc3)c12', 'Fulfilled'),
  ('COc1c2occc2c(OC)c2c(OCCCCOc3ccccc3)cc(=O)oc12', 'Fulfilled'),
  ('COc1cc2nc3occc3c(OCCCCOc3ccccc3)c2cc1OC', 'Fulfilled'),
  ('Cn1c(=O)cc(OCCCCOc2ccccc2)c2ccccc21', 'Fulfilled'),
  ('O=C1c2ccccc2C(=O)c2c(OCCCCOc3ccccc3)cccc21', 'Not fulfilled');

API: query returns whether the compound falls strictly under 2000 nM in IC50. Query: c1ccc(OCCCCOc2ccnc3ccccc23)cc1
Not fulfilled

API: query returns whether the compound falls strictly under 2000 nM in IC50. Query: c1ccc(OCCCCOC2c3ccccc3Oc3ccccc32)cc1
Not fulfilled

* * *

pIC50 for assorted compounds
# ASSAYED SYSTEM: Potassium voltage-gated channel subfamily A member 3 (Homo sapiens)
# PROTOCOL NOTES: Inhibition of Kv1.3 potassium channel expressed in mouse L929 cells by whole cell patch clamp
Interpret pIC50 as the negative base-10 log of the concentration measured in mol/L.

# get_value(readout='pIC50', item= COc1c2ccoc2cc2oc(=O)ccc12 )
4.00

# get_value(readout='pIC50', item= COc1c2ccoc2c(OCCCCOc2ccccc2)c2oc(=O)cc(C)c12 )
6.50

# get_value(readout='pIC50', item= COc1c2occc2c(OC)c2c(OCCCCOc3ccccc3)cc(=O)oc12 )
6.35

# get_value(readout='pIC50', item= S=c1ccc2c(OCCCCOc3ccccc3)c3ccoc3cc2o1 )
7.77

# get_value(readout='pIC50', item= COc1cc2nc3occc3c(OCCCCOc3ccccc3)c2cc1OC )
6.82

# get_value(readout='pIC50', item= O=c1cc(OCCCCOc2ccccc2)c2ccccc2o1 )
6.05

# get_value(readout='pIC50', item= c1ccc(OCCCCOc2cccc3occc23)cc1 )
6.19
